Origin of values: PubChem BioAssay

# Test system: Follistatin-related protein 3 (Homo sapiens) (UniProt O95633)
# Sequence (O95633 whole entry, looked up): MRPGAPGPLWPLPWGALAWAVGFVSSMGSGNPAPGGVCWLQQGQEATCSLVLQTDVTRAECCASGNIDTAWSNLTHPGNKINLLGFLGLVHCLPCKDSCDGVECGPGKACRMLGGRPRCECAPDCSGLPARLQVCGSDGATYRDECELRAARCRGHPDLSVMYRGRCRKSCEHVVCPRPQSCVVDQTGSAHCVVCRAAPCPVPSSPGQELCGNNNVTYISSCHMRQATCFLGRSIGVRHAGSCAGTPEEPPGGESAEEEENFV
# Assay details: FSTL3 binders on small-molecule microarrays, primary screen, biochemical, small-molecule microarray, 635 nm fluorescence (AID 1105);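 note: score merges emission near 667 nm and signal to noise per printed spot across three slides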
# Assay setup: FSTL3 binding, higher = more signal
Label rule, in plain words: composite z-score of 0.3 and up is Criterion met, under 0.3 is Criterion not met.

• CCOC(=O)CCN1C(=O)[C@H]2[C@H]3[C@H](O)[C@H](O)CC(=NOC[C@@H](O)COCc4ccco4)[C@@H]3CC[C@H]2C1=O = Criterion not met

Is composite z-score at least 0.3? Consider N#Cc1ccc(NN2C(C(O)c3cc(C(F)(F)F)cc(C(F)(F)F)c3)C=CC3C(=O)N(c4ccccc4)C(=O)C32)cc1 (stereo not given)
Criterion met

Is composite z-score at least 0.3? Consider O=C1[C@H]2[C@H]3[C@H](O)[C@H](O)CC(=NOCc4ccccc4)[C@H]3CC[C@H]2C(=O)N1c1ccc(F)cc1F
Criterion not met

Is composite z-score at least 0.3? Consider COc1ccccc1CN1C(=O)c2ccccc2[C@@]2(Cc3ccccc3N(C(C)C)C2=O)[C@@H]1c1ccc(CO)cc1
Criterion not met

Is composite z-score at least 0.3? Consider C[C@@H](c1ccccc1)N1C(=O)[C@H]2[C@H]3[C@H](O)[C@H](O)CC(=NNC(=O)OCc4ccccc4)[C@H]3CC[C@H]2C1=O
Criterion not met

Is composite z-score at least 0.3? Consider COc1ccccc1CN1C(=O)c2ccccc2[C@@H](C(=O)NCC(F)(F)F)[C@@H]1c1ccc(CO)cc1
Criterion met

Is composite z-score at least 0.3? Consider CC1(C)OCC(C(O)C2=CCCCC2=O)CO1 (stereo not given)
Criterion met

Is composite z-score at least 0.3? Consider COC(=O)[C@@H]1CC[C@H](C)[C@@H](c2ccc(C)cc2)N1C(=O)c1ccc(C=NOC[C@@H](O)COCc2ccco2)cc1
Criterion not met

Is composite z-score at least 0.3? Consider C[C@H]1Cc2c(-c3ccccc3)nc3c(c2CO1)CN(CCOc1ccccc1)CC3
Criterion met

Is composite z-score at least 0.3? Consider CCOC(=O)C[C@H]1[C@H](OC(=O)c2ccc(C(=O)c3ccccc3)cc2)[C@@H](NC(=O)c2ccc(-c3ccccc3)cc2)c2cc(OCCCO)ccc2N1C(=O)c1ccc2ccccc2n1
Criterion met

Is composite z-score at least 0.3? Consider C=CCNC(=O)[C@H]1[C@@H]2C(=O)O[C@@H](c3ccccc3)[C@@H](c3ccccc3)N2[C@@H](c2ccc(O)cc2)[C@]12C(=O)N(C(=O)OCCOC)c1ccc(C#CC3=CCCCC3)cc12
Criterion met

Is composite z-score at least 0.3? Consider C#CCCCON=C1C[C@@H](O)[C@@H](O)[C@@H]2[C@@H]3C(=O)N(Cc4ccccc4)C(=O)[C@@H]3CC[C@H]12
Criterion not met

Is composite z-score at least 0.3? Consider O=C1C[C@]2(c3ccc([N+](=O)[O-])cc3)C(=O)N(CCN3CCOCC3)c3cc(CO)ccc3[C@H]2N1CC12CC3CC(CC(C3)C1)C2
Criterion not met

Is composite z-score at least 0.3? Consider CN1C(=O)C2C(C1=O)C1C=C(CCCO)C2C(c2ccc(CN3CCCC3)cc2)N1C (stereo not given)
Criterion not met

Is composite z-score at least 0.3? Consider COC(=O)[C@H](C)NC(=O)CCC1CC(OC(=O)NCc2cccc3ccccc23)CC2(CCCC(COC(=O)NCCc3ccc(Cl)cc3)O2)O1 (stereo not given in full)
Criterion met

----------
# Assay details: small-molecule microarray binders of probe aWnt5a, primary screen, biochemical, biotinylated probe, 635/667 nm fluorescence (AID 1113);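 note: score merges 667 nm fluorescence intensity with signal-to-noise per printed feature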
# Assay setup: higher = more signal
Label rule, in plain words: composite z-score of -0.04 and up is fulfilled, under -0.04 is not fulfilled.

* O=C1[C@H]2[C@H]3[C@H](O)[C@H](O)CC(=NOCc4ccccc4)[C@@H]3CC[C@H]2C(=O)N1C1CCCCC1 | not fulfilled

Is composite z-score at least -0.04? Consider CC(CCN1CCc2nc(-c3ccccc3)c(-c3ccccc3)cc2C1)=NO[C@H](C)c1cn([C@@H]2COC[C@H]2O)nn1
not fulfilled

Is composite z-score at least -0.04? Consider C#C[C@@H](CC)O[Si](C#Cc1ccc(Oc2ccccc2)cc1)(C(C)C)C(C)C
not fulfilled

Is composite z-score at least -0.04? Consider Cn1cccc1C(O)C1C=CC2C(=O)NC(=O)C2N1Nc1ccccn1 (stereo not given)
not fulfilled

Is composite z-score at least -0.04? Consider CCCNC(=O)OC[C@H]1O[C@H](CCON=C2[C@H]3CCn4c(=O)n(-c5ccccc5)c(=O)n4[C@H]3[C@H](O)[C@@H]3O[C@H]23)C=C[C@@H]1Oc1ccc(OC)cc1
not fulfilled

Is composite z-score at least -0.04? Consider CC1(C)OCC(C(O)C2=CCCCC2=O)CO1 (stereo not given)
fulfilled

----------
Reported composite z-score values follow for various compounds
# Test system: glycogen synthase kinase-3 (GSK3A per assay name; protocol says GSK3B)
# Assay details: GSK3 binders on small-molecule microarrays, primary screen, biochemical, small-molecule microarray, 635 nm fluorescence, GSK3A (AID 1103); note: the record names both GSK3A and GSK3B
# Assay setup: small-molecule microarray binding, fluorescence 635 nm; higher = more signal
Write the value as a bare number.

Answered cases to consult:
• CC(=O)OC[C@H]1O[C@H](CCON=C(C)CCC(=O)OC[C@H]2O[C@H](C#Cc3ccccc3)C=C[C@@H]2Oc2ccc(C)cc2)C=C[C@@H]1OC(C)=O = -0.219
• COc1ccc([Si](C)(C)[C@H]2[C@H](CC(=O)N3CCC[C@H]3CO)O[C@@]3(C(=O)N(Cc4cccc(N5C(=O)COc6ccccc65)c4)c4ccccc43)[C@@H]2C)cc1 = 0.803
• COC(=O)[C@H](C)NC(=O)CCC1CC(OC(=O)NCc2ccc3c(c2)OCO3)CC2(CCCC(COC(=O)NCCOc3ccccc3)O2)O1 (stereo partly specified) = 1.29
• C=CC[C@]1(C(=O)NCc2ccccc2)N=C(c2ccc(OCCCO)cc2)O[C@H]1c1ccccc1 = 0.165
• CCOC(=O)[C@H](Cc1ccccc1)NC(=O)CCC1CC(OC(=O)NCc2ccc3c(c2)OCO3)CC2(CCCC(COC(=O)NCC3CCCCC3)O2)O1 (stereo partly specified) = 1.27

Form: compound = O=C1O[C@@H](c2ccccc2)[C@@H](c2ccccc2)N2[C@@H](c3ccc(OCCO)cc3)[C@]3(C(=O)Nc4ccccc43)[C@@H](C(=O)N3CCN(c4ncccn4)CC3)[C@H]12 ; composite z-score = 1.22

----------
# Test system: Streptavidin (Streptomyces avidinii)
# Assay details: streptavidin binders on small-molecule microarray, primary screen, artefact control for SMM compound annotation, biophysical, 635/667 nm fluorescence (AID 1147);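 note: signal reflects streptavidin binding to arrayed compounds as a control protein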
# Assay setup: streptavidin binding, higher = more signal
Label rule, in plain words: composite z-score of 0.9 and up is met, under 0.9 is not met.

Here's what some known entries look like.
* CC(CCN1CCCCc2nc(C)c(C)cc21)=NOC(C)CN1CCCc2nc(C)c(C)cc21 (centres undefined) | met
* CCCNC(=O)OC[C@H]1O[C@H](CCON=C2[C@H]3CCn4c(=O)n(-c5ccccc5)c(=O)n4[C@H]3[C@H](O)[C@@H]3O[C@H]23)C=C[C@@H]1Oc1ccc(OC)cc1 | not met
* C=CC[C@@H]1C=C[C@H](ON=C[C@@H](OC)[C@H](C)C=CCC(=O)OC)[C@@H](CO)O1 | not met

Is composite z-score at least 0.9? Consider CC(=O)OC[C@H]1O[C@@H](ON=C(C)CCN2CCc3nc(-c4ccccc4)c(-c4ccccc4)cc3C2)[C@H](OC(C)=O)[C@@H](OC(C)=O)[C@@H]1OC(C)=O
not met

Is composite z-score at least 0.9? Consider CCc1cc2c(nc1CC)CCN(CCC(C)=NOC(C)CN1CCCc3nc(C)c(C)cc31)C2 (centres undefined)
not met

Is composite z-score at least 0.9? Consider COC(=O)[C@@]1(Cc2ccc(OC)cc2)[C@H]2c3cc(C(=O)N4CCCC4)n(Cc4cc(F)c(F)c(F)c4)c3C[C@H]2CN1C(=O)c1ccccc1
met

Is composite z-score at least 0.9? Consider CC(C)OC(=O)C=C1C[C@@H](c2ccc(C#N)cc2)O[C@@H](c2ccc(C#N)cc2)O1
not met

Is composite z-score at least 0.9? Consider CC(C)NC(=O)[C@@]1(c2ccc([N+](=O)[O-])cc2)CC(=O)N(CC23CC4CC(CC(C4)C2)C3)[C@@H]1c1ccc(CO)cc1I
not met

Is composite z-score at least 0.9? Consider C[C@H](c1ccccc1)N1C(=O)[C@H]2[C@H]3[C@H](O)[C@H](O)CC(=O)[C@@H]3CC[C@H]2C1=O
not met

Is composite z-score at least 0.9? Consider COc1ccc(COC(=O)NN=C2C[C@@H](O)[C@@H](O)[C@@H]3[C@@H]4C(=O)N(Cc5ccc6c(c5)OCO6)C(=O)[C@@H]4CC[C@@H]23)cc1
met

Is composite z-score at least 0.9? Consider C[C@@H]1C=CCC(=O)OC[C@H](C)C(=O)N2CCC[C@H]2C(=O)OC1
not met

Is composite z-score at least 0.9? Consider CN(C)C(=O)[C@@]1(Cc2ccccc2)N=C(c2ccc(OCCCO)cc2)O[C@H]1c1ccccc1CN=[N+]=[N-]
met

Is composite z-score at least 0.9? Consider C=CCNC(=O)[C@H]1[C@@H]2C(=O)O[C@@H](c3ccccc3)[C@@H](c3ccccc3)N2[C@@H](c2ccc(O)cc2)[C@]12C(=O)N(C(=O)OCCOC)c1ccc(C#CC3=CCCCC3)cc12
not met
